Overview of recorded Specific Properties for various compounds
- procedure_text: Activities and properties of the compounds (Table III codes listed as Specific Properties in Table IV)
- measurement_conditions: codes of Table III; higher levels of activity

compound	Specific Properties
CC(=O)[C@@]1(OC(=O)CNC(=N)N)CCC2C3CC(C)C4=CC(=O)CCC4(C)C3CCC21C (stereo partly drawn) [Compound 185]	27, Progestin, androgenic
CCCCCC(O)/C=C/C1C(O)CC(=O)[C@@H]1CCCCCCCC(=O)OCC(O)COC(=O)CCCCCCC[C@H]1C(=O)CC(O)C1/C=C/C(O)CCCCC (stereo partly drawn) [Compound 170, 1,3-Di-PGE1-2-propanol-ester]	8, 9, 12, Vasodilator
CC(=O)[C@@]1(OC(=O)CNC(=N)N)CCC2C3CCC4=CC(=O)CCC4(C)C3CCC21C (stereo partly drawn) [Compound 186, 17-(Guanidinoacetoxy)-progesterone]	1927, Progestin, androgenic
N=C(N)c1ccc(OCCCCCOc2ccc(C(=N)N)cc2)cc1 [Compound 192, reference compound]	1, 2, 8–10, 15, 29 Adrenergic antagonist
